Reported viability, T/C is given for each of the following compounds.
# System: 328373-195-R-J1-PDC complex spheroids, viability % test/control
# assay_info: Anticancer human tumor 328373-195-R-J1-PDC patient-derived head and neck squamous carcinoma cell line growth inhibition [CLK]
# experimental_setup: second compound 10 µM; first compound 0.316 µM; stronger effect = lower value

| compound | viability, T/C |
| --- | --- |
| CCN1CCN(Cc2ccc(Nc3ncc(F)c(-c4cc(F)c5nc(C)n(C(C)C)c5c4)n3)nc2)CC1 + CNC(=O)c1ccc(Nc2nc(OC3CCCC3)c3c(-c4ccc5nc(C)oc5c4)c[nH]c3n2)c(OC)c1 | 17.6% |
| CCN1CCN(Cc2ccc(Nc3ncc(F)c(-c4cc(F)c5nc(C)n(C(C)C)c5c4)n3)nc2)CC1 + CN1CCN(c2cc(C(=O)Nc3cc4cc(-c5cnn(C)c5)ccc4cn3)ccn2)CC1 | 1.94% |
| COc1ccc([C@@H](O)c2cc(-c3ncnc4cc(N5CCOCC5)ccc34)c(F)cc2Cl)nn1 + CN1CCN(c2cc(C(=O)Nc3cc4cc(-c5cnn(C)c5)ccc4cn3)ccn2)CC1 | 0.19% |
| CCCS(=O)(=O)Nc1ccc(F)c(C(=O)c2c[nH]c3ncc(-c4ccc(Cl)cc4)cc23)c1F + CN1CCN(c2cc(C(=O)Nc3cc4cc(-c5cnn(C)c5)ccc4cn3)ccn2)CC1 | 0.81% |
| CC(=O)O[C@H]1C(=O)[C@@]2(C)[C@H]([C@H](OC(=O)c3ccccc3)[C@]3(O)C[C@H](OC(=O)[C@H](O)[C@@H](NC(=O)c4ccccc4)c4ccccc4)C(C)=C1C3(C)C)[C@]1(OC(C)=O)CO[C@@H]1C[C@@H]2O + CN1CCN(c2cc(C(=O)Nc3cc4cc(-c5cnn(C)c5)ccc4cn3)ccn2)CC1 | 0.15% |
| O=c1[nH]cc(F)c(=O)[nH]1 + CN1CCN(c2cc(C(=O)Nc3cc4cc(-c5cnn(C)c5)ccc4cn3)ccn2)CC1 | 2.65% |

* * *

# Tested on: 328373-195-R-J1-PDC complex spheroids, viability % test/control
# assay_info: Anticancer human tumor 328373-195-R-J1-PDC cell line growth inhibition [CLK];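 further: spheroids exposed to the agents for 7 days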
# experimental_setup: curve of first compound; second compound 0.1 µM

| compound | IC50 |
| --- | --- |
| O=c1[nH]cc(F)c(=O)[nH]1 + CN1CCN(c2cc(C(=O)Nc3cc4cc(-c5cnn(C)c5)ccc4cn3)ccn2)CC1 | 62.1 nM |
| C=CC(=O)Nc1cc(Nc2nccc(-c3cn(C)c4ccccc34)n2)c(OC)cc1N(C)CCN(C)C + CN1CCN(c2cc(C(=O)Nc3cc4cc(-c5cnn(C)c5)ccc4cn3)ccn2)CC1 | > 300 nM |
| C=CC(=O)N1CCN(c2nc(=O)n(-c3c(C)ccnc3C(C)C)c3nc(-c4c(O)cccc4F)c(F)cc23)C(C)C1 (stereo unspecified) + CNC(=O)c1ccc(Nc2nc(OC3CCCC3)c3c(-c4ccc5nc(C)oc5c4)c[nH]c3n2)c(OC)c1 | < 31.6 nM |
| CCc1c2c(nc3ccc(O)cc13)-c1cc3c(c(=O)n1C2)COC(=O)[C@]3(O)CC + CNC(=O)c1ccc(Nc2nc(OC3CCCC3)c3c(-c4ccc5nc(C)oc5c4)c[nH]c3n2)c(OC)c1 | < 3.16 nM |
| CC(CO)NC(=O)c1cc(-c2ccc(Cl)cc2)nn(-c2cnn(C)c2)c1=O (stereo unspecified) + CNC(=O)c1ccc(Nc2nc(OC3CCCC3)c3c(-c4ccc5nc(C)oc5c4)c[nH]c3n2)c(OC)c1 | < 31.6 nM |
| NC(=O)C(=Cn1cnc(-c2cc(C(F)(F)F)cc(C(F)(F)F)c2)n1)c1cncnc1 + CN1CCN(c2cc(C(=O)Nc3cc4cc(-c5cnn(C)c5)ccc4cn3)ccn2)CC1 | 12.8 nM |
| Nc1ccccc1NC(=O)c1ccc(CNC(=O)OCc2cccnc2)cc1 + CN1CCN(c2cc(C(=O)Nc3cc4cc(-c5cnn(C)c5)ccc4cn3)ccn2)CC1 | 641 nM |
| O=c1[nH]cc(F)c(=O)[nH]1 + CNC(=O)c1ccc(Nc2nc(OC3CCCC3)c3c(-c4ccc5nc(C)oc5c4)c[nH]c3n2)c(OC)c1 | < 31.6 nM |
| COc1cccc2c1C(=O)c1c(O)c3c(c(O)c1C2=O)CC(O)(C(=O)CO)CC3OC1CC(N)C(O)C(C)O1 (stereo unspecified) + CN1CCN(c2cc(C(=O)Nc3cc4cc(-c5cnn(C)c5)ccc4cn3)ccn2)CC1 | < 31.6 nM |
| Nc1ccn(C2OC(CO)C(O)C2(F)F)c(=O)n1 (stereo unspecified) + CN1CCN(c2cc(C(=O)Nc3cc4cc(-c5cnn(C)c5)ccc4cn3)ccn2)CC1 | < 31.6 nM |
| CCN1CCN(Cc2ccc(Nc3ncc(F)c(-c4cc(F)c5nc(C)n(C(C)C)c5c4)n3)nc2)CC1 + CN1CCN(c2cc(C(=O)Nc3cc4cc(-c5cnn(C)c5)ccc4cn3)ccn2)CC1 | > 1000 nM |
